Reference source for all entries: PubChem BioAssay

# Tested on: TRPC4 (transient receptor potential cation channel C4 beta), mouse
# run description: potentiation of DAMGO EC20 TRPC4 response – cell-based, second round, Fluo-4, HEK293 TRPC4beta/mu-opioid, 1 µM, confirmation (AID 2554)
# experimental context: DAMGO EC20, Fluo-4 calcium flux, at 1 µM; hits give high values
Active and inactive are the calls of the source.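 How the source made its calls: active means primary screen hit whose fluorescence ratio, in both repeats, exceeds the weak agonist control mean by 3 SD; inactive means the rest.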
experimental endpoint: potentiation

compound	observed value
CCC(=O)N1CCc2cc(Br)cc(S(=O)(=O)NCCCN(CC)Cc3ccccc3)c21	inactive
COc1ccc(Nc2nc(NCC3CCCO3)c3ccccc3n2)c(OC)c1 (stereo not drawn)	inactive
CN(Cc1ccccc1)C(=O)CSc1nnc(-c2ccco2)n1-c1ccccc1	inactive
CC(C)CN(C(=O)COC(=O)COc1ccc2ccccc2c1)c1c(N)n(Cc2ccccc2)c(=O)[nH]c1=O	inactive
CCn1c(N2CCN(C(=S)NCCc3ccccc3)CC2)nc2ccccc21	inactive

Req: Query potentiation on TRPC4 (transient receptor potential cation channel C4 beta), mouse for `CC(=O)c1ccc(N2CCN(C(=O)CCS(=O)(=O)c3ccc4c(c3)NC(=O)CS4)CC2)cc1`
Resp: inactive

Req: Let us now turn to `CC(C)(C)NCc1ccccc1OCc1cccs1`
Resp: inactive

Req: Let us now turn to `Cc1ccc(NC(=O)CN2CCc3ccccc3C2)cc1F`
Resp: inactive

Req: Let us now turn to `Cc1ccc(-n2c(N)cc(=O)nc2SCC(=O)N2CCN(c3ccccc3)CC2)cc1`
Resp: inactive

Req: Let us now turn to `Cc1cc(SCC(=O)c2cccc([N+](=O)[O-])c2)nc(=O)[nH]1`
Resp: inactive

Req: Let us now turn to CCN(CC)CCn1c(=N)n(CC(O)COc2cccc(C)c2)c2ccccc21 (stereo not drawn)
Resp: inactive

###

# Tested on: TRPC4 (mouse), co-expressed with 5HT1a in HEK293
# run description: enhancement of serotonin-evoked TRPC4 response – cell-based, second counter screen, HEK293 TRPC4/5HT1a, Fluo-4, counter-screen for TRPC4 potentiator project, confirmation (AID 434979)
# experimental context: Fluo-4 calcium flux, at 10 µM, serotonin added at its EC20 dose
Active and inactive are the calls of the source.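 Rule for the calls: active = signal rise over 3 SD above mean of control wells given weak agonist, in both repeats and first screen; inactive = the rest.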
Mark one answer only. Choices: active, inactive

Worked cases, answers included:
compound	target	qualitative label
Cc1cc(C)c(C(=O)c2ccc(C(=O)N3CCCCC3)cc2)c(C)c1	TRPC4 (mouse), co-expressed with 5HT1a in HEK293	inactive
Cc1ccc(-c2ccc3c(c2)S(=O)(=O)c2ccccc2C3=O)cc1	TRPC4 (mouse), co-expressed with 5HT1a in HEK293	inactive
COc1ccc(C(=O)CCC(=O)Nc2cccc(Cl)c2)cc1	TRPC4 (mouse), co-expressed with 5HT1a in HEK293	active
O=C(NC(=S)NNC(=O)c1cccs1)c1ccc(Br)o1	TRPC4 (mouse), co-expressed with 5HT1a in HEK293	inactive
Clc1ccc(N=C2SCC3CCCCN23)cc1 (configuration not stated)	TRPC4 (mouse), co-expressed with 5HT1a in HEK293	active

Req: Given COc1ccc(NC(=O)c2cccc(N3C(=O)C4CC=C(C)CC4C3=O)c2)c(OC)c1 (configuration not stated) , state the outcome it received in this test.
Resp: inactive

Req: Let us now turn to `O=[N+]([O-])c1ccc(CN2CCN(Cc3c[nH]c4ccccc34)CC2)cc1`
Resp: inactive

Req: Let us now turn to `OCC1(CCCc2ccccc2)CCN(Cc2cc(F)ccc2F)CC1`
Resp: inactive

Req: Let us now turn to `CC[n+]1c(/C=C/Nc2ccccc2)oc2ccc(OC)cc21`
Resp: inactive

Req: Let us now turn to `CN1/C(=C\C=[N+](C)c2ccccc2)C(C)(C)c2ccccc21`
Resp: inactive

Req: Let us now turn to `CCN(CC)CCOCCOc1ccc(Cl)c2ccccc12`
Resp: active

Req: Let us now turn to `CC(=O)c1ccc(N2CCN(C(=O)CCS(=O)(=O)c3ccc4c(c3)NC(=O)CS4)CC2)cc1`
Resp: active

Req: Let us now turn to COc1ccc(C(CNC(=O)c2oc3ccc(F)cc3c2C)N2CCCCC2)cc1 (configuration not stated)
Resp: inactive

Req: Let us now turn to O=[N+]([O-])c1ccc(O)c(C2=NNC(c3ccccc3F)C2)c1 (configuration not stated)
Resp: inactive
